Kindly state growth for each of the entries shown.
# Tested on: CAKI-1 renal
# EXPERIMENT: NCI-60 one-dose screen, 48 h (100 = growth as untreated, 0 = no growth, -100 = all killed)
# TEST_CONTEXT: 10 µM unless noted
Compounds without any hit were thinned out: in the full panel of roughly 83,000, 20% have a hit.
Use % as the unit, but write only the number.

Task: Can you look up the measured growth of CS(=O)(=O)c1ccc(/C(=N/N=C(N)N)c2ccc(Cl)cc2)cc1 for me?
Result: 59.5

Task: Same question for CN1CCN(c2ccc(Nc3nc(NCCCNS(=O)(=O)c4ccc(F)cc4)c4sccc4n3)cc2)CC1 please.
Result: 67.6

Task: Same question for CC(C)(C)c1cc(NC(=O)Nc2ccc(-c3cn4c5c(sc4n3)CCc3cn(CCCN4CCCCC4)cc3-5)cc2)no1 please.
Result: -97.2

Task: Same question for CC(=O)/C(N=Nc1ccc2oc(=O)ccc2c1)=C(\C)O please.
Result: 33.3

Task: Same question for C/C(=C(/C)C1CC1CCNC1CCC(NC(=O)OC(C)(C)C)CC1)c1ccccc1 (centres undefined) please.
Result: 53.6

Task: Same question for Fc1ccc(-c2cn3c(-c4c[nH]c5ccc(Br)cc45)csc3n2)cc1 please.
Result: 38.3

Task: Same question for O=C(Nc1ccc(Cl)c(C(F)(F)F)c1)Nc1ccc2c(ccn2C(=O)c2cccc(F)c2)c1 please.
Result: 29.1

Task: Same question for N#Cc1nc(-c2ccccc2)oc1N1CCC(C2(C(F)(F)F)N=N2)CC1 please.
Result: 84.8

Task: Same question for CCC(=C(c1ccc(OCCN(C)C)cc1)c1ccc(OCCN(C)C)cc1)c1ccc(Cl)cc1 please.
Result: -53.6
